- Tested on: Plasmodium berghei
- assay_notes: Screen against P. berghei liver stage (PbLuc), transformed with Luciferase, at 10uM
- Assay type: functional, HepG2
- reported_conditions: tested at 10 uM
In all, about 69,000 compounds went through this assay and about 8,600 (12%) showed an effect of 50% or more. For the sample, strong results were picked, then their nearest neighbours and some compounds at random.
Items are presented alongside their recorded INHIBITION.
Report the value in % with no unit label.

1. CCn1cc2c(n1)CN(Cc1cnn(C)c1)CC2COCC1CC1 (centres undefined) ... 63.7
2. CCOCC1CN(Cc2cnn(C)c2)Cc2ncn(C)c21 (centres undefined) ... 36.9
3. Cc1ccc(N2CCO[C@H]3CN(Cc4cnn(C)c4)C[C@H]32)nn1 ... 25.6
4. Cc1cc(C)cc(C(=O)N2CCCN(CC(N)=O)CC2)c1 ... 0.348
5. CCOCC1CN(Cc2ccoc2)Cc2nn(CC3CC3)cc21 (centres undefined) ... -19.4

Q: Lab request: please report INHIBITION under test system Plasmodium berghei for COCCOCC(=O)Nc1ccc(Br)cc1F
A: -6.32

Q: Return INHIBITION measured with Plasmodium berghei given this compound: NC(=O)N1CCCN(CC(=O)NCCc2c(F)cccc2F)CC1
A: -52.1

Q: // lookup INHIBITION | system=Plasmodium berghei | key= c1ccc(CCN2C[C@@H]3OCCN(c4ncccn4)[C@@H]3C2)cc1
A: 76.5

Q: Query for Plasmodium berghei: what INHIBITION does the record show for Cc1cnn(CC2CCCN2C(=O)CCc2c(C)nn(C)c2C)c1 (centres undefined) ?
A: 0.825

###

- System: Plasmodium berghei
- assay_notes: Screen against P. berghei liver stage (PbLuc), transformed with Luciferase, at 10uM
- Assay type: functional, HepG2
- reported_conditions: tested at 10 uM
About 8,600 (12%) of roughly 69,000 compounds showed an effect of 50% or more. The entries come from a sample that favours strong results as a whole.
value_type: INHIBITION (%)
Numbers only here, please. The scale is %.

Here are 8 compounds together with their reported answers.
1. Cc1ncc(C(=O)N2CCOC(C(=O)N3CCCCCC3)C2)c(C)n1 (stereo not drawn) ... 35.1
2. Fc1ccc(CN2CCC3(CC2)CCN(Cc2nccs2)CC3)cc1 ... 42.6
3. Cc1n[nH]c(C)c1C(N)C(=O)NCCc1csc(C(C)C)n1 (stereo not drawn) ... -10.8
4. Cc1sc(Oc2ccccc2Cl)nc1C(=O)O ... 18.14
5. O=C1CC2(CCCCN2C(=O)c2ccccc2)CN1CC1CC1 (stereo not drawn) ... 29.7
6. C1CCCN(C2CCCN(Cc3noc(C4CC4)n3)C2)CC1 (stereo not drawn) ... -79.7
7. Cc1[nH]ccc1C(=O)N1CCCC(c2ccc(C(=O)O)cc2)C1 (stereo not drawn) ... 2.7
8. O=C(c1ccc(COc2ccccc2Cl)o1)N1N=CCC1(O)C(F)(F)F (stereo not drawn) ... 4.66

Q: For the record c1ccc(C(CNc2ncccn2)N2CCOCC2)nc1 (stereo not drawn) , what value of INHIBITION is listed for Plasmodium berghei?
A: 3.48

###

- Test system: Plasmodium berghei
- assay_notes: Screen against P. berghei liver stage (PbLuc), transformed with Luciferase, at 10uM
- Format: functional, HepG2
- reported_conditions: tested at 10 uM
The whole screen tested about 69,000 compounds, of which about 8,600 (12%) showed an effect of 50% or more. Shown is part of a subset that was picked to be rich in strong results.
Give T when the value for INHIBITION is at least 20%. Give F when it is less.

Completed entries (count: 10):
1) O=C(NCCn1ccnc1)N1CCCC1c1ccncc1 (stereo unspecified) ... T
2) CNc1cc(N2CCCC2CNCc2cccc(C(N)=O)c2)ncn1 (stereo unspecified) ... T
3) CN1CCC(c2nnc(CN3CCCCC3)n2C)CC1 ... T
4) COc1nn(C)c2c1CCCN(S(=O)(=O)c1cccc(F)c1)C2 ... F
5) Cn1c2c(c(=O)n1C)CN(S(=O)(=O)c1cccs1)CCC2 ... F
6) CCSc1ncc(-c2cc(C3CCC3)nc(N)c2C#N)cn1 ... T
7) Cc1cc(OCCC(=O)Nc2cccc(F)c2)nnc1C ... F
8) COCc1nc(N(C)C)ncc1C(=O)OC ... T
9) Cc1noc(C)c1CCC(=O)Nc1ccn(C)n1 ... T
10) Cc1cccc(S(=O)(=O)N2CCCc3c(c(=O)n(C)n3C)C2)c1 ... T

Q: Can COCCN1CCN(CCCS(C)(=O)=O)CC1C (stereo unspecified) be said to have INHIBITION at or above 20%?
A: T

Q: Quick check: does CCc1ccccc1C(=O)N1CCCC1CC(=O)c1cnn(C)c1 (stereo unspecified) have INHIBITION greater than or equal to 20%?
A: T

Q: // inclusive: INHIBITION at least 20%? input: CCN(Cc1ccc(OC)c(F)c1)Cc1nc2c(cnn2C)c(=O)[nH]1
A: F

###

- Tested on: Plasmodium berghei
- assay_notes: Screen against P. berghei liver stage (PbLuc), transformed with Luciferase, at 10uM
- Assay type: functional, HepG2
- reported_conditions: tested at 10 uM
Screen size: about 69,000 compounds; about 8,600 (12%) showed an effect of 50% or more. The sample as a whole holds a higher share of strong results than the screen did.
value_type: INHIBITION (%)
Kindly answer with a numeric value in %, unit omitted.

Worked examples follow.
1) Nc1ncc(CN2CCC(O)(c3ccccc3F)CC2)cn1 ... 31.5
2) Cc1ccc(CN(C(=O)NCC2CCS(=O)(=O)C2)C2CC2)o1 (stereo not given) ... -39.2
3) Cc1cc(C)n(C2CN(c3nc(-c4ccncc4)nc4c3CCC4)C2)n1 ... 81.4
4) Cc1noc(C)c1C(=O)NCc1ccnc(OCC(F)(F)F)c1 ... 63.6
5) Cc1ccc(CNC2CCN(CCc3ccncc3)CC2)cc1C ... 15.1
6) COCCN1CCC(NCc2ccc(C#N)cc2)C1 (stereo not given) ... 57.4

Q: INHIBITION for N#Cc1ccc(CNC2CCN(CCc3ccncc3)CC2)cc1 ?
A: 51.1

Q: Given CCOc1cccc(CNC(=O)c2cnn(CC)c2C(F)(F)F)c1 , state its recorded INHIBITION.
A: -15.3

Q: # lookup: INHIBITION of COCCN1CCC(NCc2cccc(C)c2)C1 (stereo not given)
A: 15.6

Q: // INHIBITION lookup, key: CCOCC(=O)N1C[C@@H]2CC[C@H]1CN(C(=O)c1ccncc1)C2
A: -30.7

Q: // returns reported INHIBITION for input CC(=O)N1CCCC(c2ccccn2)C1 (stereo not given)
A: 15.9

Q: I have this compound here, Cc1nn(C)c2c(=O)n(Cc3ccccc3)nnc12 , and I need its recorded INHIBITION.
A: 28.89

Q: Which INHIBITION value is on record for CCN1CC(COC(C)(C)C)Oc2ccncc2S1(=O)=O (stereo not given) ?
A: 13.1

Q: Returns the measured INHIBITION for the input compound. Input: COCCN1CCC(NCc2ccc(Cl)cc2)C1 (stereo not given)
A: 23.4

Q: Consider the compound CCn1ncc(C(=O)NCc2ccc(C)c(OC)c2)c1C(F)(F)F and give its measured INHIBITION.
A: 46.7

Q: // INHIBITION lookup, key: OCCC1CN(c2nc(-c3ccncc3)nc3c2CCNCC3)CCO1 (stereo not given)
A: 11.8

Q: Recorded INHIBITION of Cc1ncsc1C(=O)NCc1ccnc(OCC(F)(F)F)c1 , please.
A: 73.05

Q: May I ask what INHIBITION has been recorded for COc1cc(CNC(=O)c2c(C)noc2C)ccn1 ?
A: 32.15

Q: Any idea what its INHIBITION is? The compound is CSc1ccc(CNC2CCN(CCc3ccncc3)CC2)cc1
A: 16.1

Q: Entry CC(C)c1ccc(CC(=O)N2CCCC3(CN(C)C(=O)O3)C2)cc1 (stereo not given) : reported INHIBITION = ?
A: 24.3

Q: // lookup INHIBITION for CCCc1nc(CN2CCCC(c3noc(C4CC4)n3)C2)no1 (stereo not given)
A: 4.71

Q: I am curious: what INHIBITION value has been reported for N#Cc1ccc(CNC(=O)NC2CCN(CC(F)(F)F)C2)cc1 (stereo not given) ?
A: 52

Q: Bench note: what INHIBITION did Cc1sc2c(C3CCCN(S(C)(=O)=O)C3)nc(C)n2c1C (stereo not given) show?
A: -22.6

Q: Requested field: INHIBITION. Item: CCc1c(C)nc2n(c1=O)CC(C(=O)Nc1ccccc1C)CS2 (stereo not given)
A: 42.4

Q: # input compound: Cc1ccsc1C(=O)NCc1ccnc(OCC(F)(F)F)c1 ; wanted: its INHIBITION
A: 39.5
